Molecular target: WT MAO B (Homo sapiens, UniProt P27338)
Sequence (P27338 1-520): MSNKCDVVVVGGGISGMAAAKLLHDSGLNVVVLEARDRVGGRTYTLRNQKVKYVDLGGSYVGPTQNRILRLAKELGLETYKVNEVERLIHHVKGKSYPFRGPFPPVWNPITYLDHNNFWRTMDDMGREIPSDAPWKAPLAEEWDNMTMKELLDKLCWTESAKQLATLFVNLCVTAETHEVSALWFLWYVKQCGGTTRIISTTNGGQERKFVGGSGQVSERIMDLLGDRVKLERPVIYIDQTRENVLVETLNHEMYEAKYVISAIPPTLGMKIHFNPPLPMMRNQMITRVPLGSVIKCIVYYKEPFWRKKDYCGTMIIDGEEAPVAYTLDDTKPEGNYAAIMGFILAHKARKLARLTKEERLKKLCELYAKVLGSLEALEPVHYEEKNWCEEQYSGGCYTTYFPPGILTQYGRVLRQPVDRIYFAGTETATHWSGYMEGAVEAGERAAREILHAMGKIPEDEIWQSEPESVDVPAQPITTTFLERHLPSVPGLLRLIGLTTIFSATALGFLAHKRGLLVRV
Experiment: Inhibition of WT MAO B, Ki from initial rates of substrate oxidation
Assay type: biochemical
readoutName: pKi
Lab note — pKi values are minus log10 of concentrations in M.

Documented pKi of Cc1nccc2c1[nH]c1ccccc12 : 3.85
